# Measured Target: human PAH with the R408W mutation (Homo sapiens, UniProt P00439, R408W)
# Construct: expressed in transfected cells
# Sequence (P00439 whole entry R408W): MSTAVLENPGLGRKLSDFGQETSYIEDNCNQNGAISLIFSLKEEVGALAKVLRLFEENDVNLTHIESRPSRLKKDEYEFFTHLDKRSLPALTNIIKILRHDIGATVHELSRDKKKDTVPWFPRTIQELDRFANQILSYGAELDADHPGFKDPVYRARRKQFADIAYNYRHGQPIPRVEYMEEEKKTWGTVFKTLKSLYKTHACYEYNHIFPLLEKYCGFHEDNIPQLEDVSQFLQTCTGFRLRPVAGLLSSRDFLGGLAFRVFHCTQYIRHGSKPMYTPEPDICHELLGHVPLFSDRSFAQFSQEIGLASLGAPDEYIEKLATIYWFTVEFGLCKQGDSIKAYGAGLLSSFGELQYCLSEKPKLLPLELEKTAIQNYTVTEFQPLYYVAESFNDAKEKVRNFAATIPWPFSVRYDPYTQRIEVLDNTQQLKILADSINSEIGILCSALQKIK
# Assay: Cell Based Phenylalanine Flux Assay
# Reported Conditions: A375 cells expressing R408W PAH; 24 hrs with compound, then 20 µM sepiapterin and 800 µM 13C9,15N-Phenylalanine for 4 hours; 13C-Tyrosine by LC-MS; average where tested multiple times; read-out: AC50
This section presents compounds with their documented AC50 values.

For orientation, consider the following solved cases.
1. Cc1c(-c2ncc(C(=O)N3CCc4[nH]cnc4C3c3cc4ccccn4n3)o2)cnn1C (stereo not drawn)    > 5 µM
2. Cn1ncc(C(=O)N2CCc3[nH]cnc3C2c2cc3ccccn3n2)c1C(F)F (stereo not drawn)    1 to 5 µM
3. Cc1n[nH]cc1-c1nnc(C(=O)N2CCc3[nH]cnc3C2c2cc3c(C)cccn3n2)o1 (stereo not drawn)    1 to 5 µM
4. Cc1ccn2nc(C3c4nc[nH]c4CCN3C(=O)c3nnc(C(C)(C)F)o3)cc2c1 (stereo not drawn)    1 to 5 µM
5. O=C(c1nnc(-c2ccccn2)o1)N1CCc2[nH]cnc2C1c1cc2cc(F)ccn2n1 (stereo not drawn)    > 5 µM

Q: Check the records and state AC50 for Cn1ncnc1C(=O)N1CCc2[nH]cnc2C1c1cc2cccc(Cl)n2n1 (stereo not drawn)
Ans: 1 to 5 µM

Q: Supply measured AC50 of Cc1ccn2nc(C3c4nc[nH]c4CCN3C(=O)c3nnc(C(C)(C)C)o3)cc2c1 (stereo not drawn) in your reply.
Ans: 1 to 5 µM

Q: Identify measured AC50 associated with Cc1cccn2nc(C3c4nc[nH]c4CCN3c3nnc(C(C)(C)F)o3)cc12 (stereo not drawn)
Ans: > 5 µM

Q: Given Cc1ncccc1-c1nnc(N2CCc3[nH]cnc3[C@H]2c2cc3c(C4CC4)cccn3n2)o1 (single isomer, unassigned) , respond with its AC50.
Ans: 1 to 5 µM

====

# Measured Target: human PAH with the R408W mutation (Homo sapiens, UniProt P00439, R408W)
# Construct: expressed in transfected cells
# Assay: Cell Based Phenylalanine Flux Assay;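 further: after compound treatment, cells received sepiapterin plus isotope-labelled Phenylalanine for 4 hours, then labelled Tyrosine in the medium was quantified, 10-point 2-fold dilution series run in duplicate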
# Reported Conditions: A375 cells expressing human R408W PAH; 24 hrs compound incubation; 13C-Tyrosine by LC-MS; average where tested multiple times; read-out: AC50
Reported Endpoint: AC50

Examples with their reported AC50 follow.
1. Cc1ccc2cc([C@@H]3c4nc[nH]c4CCN3C(=O)c3nnc(C(C)(C)F)o3)nn2c1    500 to 1000 nM
2. Cn1nc(C(F)F)cc1C(=O)N1CCc2[nH]cnc2[C@H]1c1cc2c(F)cccn2n1    < 500 nM
3. O=C(c1nnc(C2CC2)o1)N1CCc2[nH]cnc2[C@@H]1c1cc2cccc(C(F)F)n2n1    1000 to 5000 nM
4. Cc1cccn2nc([C@H]3c4nc[nH]c4CCN3c3ncc(C(F)(F)F)cn3)cc12    > 5000 nM
5. Cc1ncoc1C(=O)N1CCc2[nH]cnc2[C@@H]1c1cc2ccccn2n1    > 5000 nM
6. CC(C)(O)c1nc(Br)c(C(=O)N2CCc3[nH]cnc3[C@H]2c2cc3c(Cl)cccn3n2)o1    < 500 nM
7. Cn1ncnc1C(=O)N1CCc2[nH]cnc2[C@H]1c1cc2c(C(F)(F)F)cccn2n1    < 500 nM

# context switch: different compound, same AC50
Q: Specify reported AC50 for the compound shown: `O=C(c1nnc(-c2cnn(C(F)F)c2)o1)N1CCc2[nH]cnc2[C@H]1c1cc2cccc(Cl)n2n1`
Ans: < 500 nM
